- Test system: 134 cancer cell lines
- protocol summary: Cell viability assay (ATPlite, 72 hours), IC50 on cancer cell line panel
- applied conditions: Homo sapiens, SW48, read-out: IC50 in cell proliferation assay, cell line SW48 (EGFR p.G719S)
assay readout: IC50

compound: Cn1cnc2c(F)c(Nc3ccc(Br)cc3F)c(C(=O)NOCCO)cc21
IC50: 0.014 µM
//
compound: O=C(Nc1cnn2ccc(N3CCC[C@@H]3c3cc(F)ccc3F)nc12)N1CC[C@H](O)C1
IC50: > 31.6 µM
//
compound: CCc1nc(C(N)=O)c(Nc2ccc(N3CCC(N4CCN(C)CC4)CC3)c(OC)c2)nc1NC1CCOCC1
IC50: 0.286 µM

134 cancer cell lines assay, molecule COc1cc2ncnc(Nc3ccc(F)c(Cl)c3)c2cc1NC(=O)/C=C/CN1CCCCC1 , recorded IC50 = 0.000636 µM

134 cancer cell lines assay, molecule O=C(c1ccc(F)c(F)c1Nc1ccc(I)cc1F)N1CC(O)([C@@H]2CCCCN2)C1 , recorded IC50 = 0.059 µM

====

- target or test system: panel of 255 wild-type kinases (Homo sapiens, UniProt Q8IWQ3)
- Sequence (Q8IWQ3 whole entry): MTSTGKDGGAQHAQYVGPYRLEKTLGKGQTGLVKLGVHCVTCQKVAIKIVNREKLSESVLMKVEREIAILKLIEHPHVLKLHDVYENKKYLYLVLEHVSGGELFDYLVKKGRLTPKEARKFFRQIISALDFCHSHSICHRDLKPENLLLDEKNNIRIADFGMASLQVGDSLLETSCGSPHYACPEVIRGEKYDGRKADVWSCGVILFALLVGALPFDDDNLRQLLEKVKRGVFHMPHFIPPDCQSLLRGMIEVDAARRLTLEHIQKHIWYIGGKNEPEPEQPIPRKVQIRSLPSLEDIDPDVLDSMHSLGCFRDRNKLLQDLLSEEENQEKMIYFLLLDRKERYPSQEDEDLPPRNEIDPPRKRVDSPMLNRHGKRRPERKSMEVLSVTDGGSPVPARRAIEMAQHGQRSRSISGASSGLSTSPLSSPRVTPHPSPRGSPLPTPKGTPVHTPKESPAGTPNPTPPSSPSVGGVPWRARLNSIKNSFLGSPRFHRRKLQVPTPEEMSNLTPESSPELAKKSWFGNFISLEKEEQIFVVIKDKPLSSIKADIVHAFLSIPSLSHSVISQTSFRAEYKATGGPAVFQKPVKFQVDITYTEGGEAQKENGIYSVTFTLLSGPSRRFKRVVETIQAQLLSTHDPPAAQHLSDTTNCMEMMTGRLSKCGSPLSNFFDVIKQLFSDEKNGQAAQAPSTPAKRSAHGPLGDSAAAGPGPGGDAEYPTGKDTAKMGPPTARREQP
- protocol summary: Kinase panel profiling at 1 µmol/L (MSA or IMAP), percentage inhibition
- Format: biochemical
- applied conditions: BRSK2 kinase assay; 1 µmol/L single concentration; read-out: %-inhibition BRSK2
Measured inhibition at 1 µM of individual entries

The examples below pair each entry with its known result.
compound: CO[C@]1(C(=O)N[C@@H](C)c2ccc(-n3cc(F)cn3)nc2)CC[C@H](c2nc(C)cc(Nc3cc(C)[nH]n3)n2)CC1
result: 14%
--
compound: Cc1cc(Nc2ncnc3ccc(NC4=NC(C)(C)CO4)cc23)ccc1Oc1ccn2ncnc2c1
result: 7%
--
compound: CCN1C(=O)N(c2c(F)c(OC)cc(OC)c2F)Cc2cnc3[nH]c(CN4CCOCC4)cc3c21
result: 3.17%
--
compound: CCN1CCN(c2ccc(Nc3cc(N(C)C(=O)Nc4c(Cl)c(OC)cc(OC)c4Cl)ncn3)cc2)CC1
result: 2.65%
--
compound: CN1CCN(c2ccc(C(=O)Nc3n[nH]c4ccc(Cc5cc(F)cc(F)c5)cc34)c(NC3CCOCC3)c2)CC1
result: 18%

molecule Cn1cc(-c2cc3c(N4CCN(c5ncc([C@@](C)(N)c6ccc(F)cc6)cn5)CC4)ncnn3c2)cn1 , inhibition at 1 µM observed: 11%

molecule Cn1cnc2c(F)c(Nc3ccc(Br)cc3F)c(C(=O)NOCCO)cc21 , inhibition at 1 µM observed: -13%

molecule O=C(Nc1cnn2ccc(N3CCC[C@@H]3c3cc(F)ccc3F)nc12)N1CC[C@H](O)C1 , inhibition at 1 µM observed: 0.485%

====

Measured IC50 of individual entries
- System: 134 cancer cell lines
- protocol summary: Cell viability assay (ATPlite, 72 hours), IC50 on cancer cell line panel
- applied conditions: Homo sapiens, SW48, read-out: IC50 in cell proliferation assay

compound: CCc1cc2c(cc1N1CCC(N3CCOCC3)CC1)C(C)(C)c1[nH]c3cc(C#N)ccc3c1C2=O
assay readout: IC50
result: > 10 µM

Moving on to another compound below.
compound CNC(=O)c1ccc(-c2cnc3ncc(Cc4ccc5ncccc5c4)n3n2)cc1F , IC50 observed: > 31.6 µM

====

- Tested on: 134 cancer cell lines
- protocol summary: Cell viability assay (ATPlite, 72 hours), IC50 on cancer cell line panel
- applied conditions: read-out: IC50 in cell proliferation assay, cell line RT-4 (FGFR3-TACC3)
Measured pIC50 of individual entries
// pIC50: -log10(molar conc.)

compound: CO[C@]1(C(=O)N[C@@H](C)c2ccc(-n3cc(F)cn3)nc2)CC[C@H](c2nc(C)cc(Nc3cc(C)[nH]n3)n2)CC1
result: 6.34

compound: CC(=O)Nc1cccc(-n2c(=O)n(C3CC3)c(=O)c3c(Nc4ccc(I)cc4F)n(C)c(=O)c(C)c32)c1
result: 7.14

compound: Cc1cc(Nc2ncc(Cl)c(Nc3ccccc3S(=O)(=O)C(C)C)n2)c(OC(C)C)cc1C1CCNCC1
result: 5.39

compound Cc1cc(Nc2ncnc3ccc(NC4=NC(C)(C)CO4)cc23)ccc1Oc1ccn2ncnc2c1 , pIC50 observed: 5.00

compound CN1CCN(c2ccc(C(=O)Nc3n[nH]c4ccc(Cc5cc(F)cc(F)c5)cc34)c(NC3CCOCC3)c2)CC1 , pIC50 observed: 5.53

====

- Tested on: 134 cancer cell lines
- protocol summary: Cell viability assay (ATPlite, 72 hours), IC50 on cancer cell line panel
- applied conditions: Homo sapiens, NCI-H460, read-out: IC50 in cell proliferation assay, NCI-H460 cell line
Measured pIC50 of individual entries
// pIC50: -log10(molar conc.)

The examples below pair each entry with its known result.
compound: Cc1nc(NC(=O)N2CCC[C@H]2C(N)=O)sc1-c1ccnc(C(C)(C)C(F)(F)F)c1
assay readout: pIC50
result: 5.15
--
compound: CN1CCN(c2ccc(C(=O)Nc3n[nH]c4ccc(Cc5cc(F)cc(F)c5)cc34)c(NC3CCOCC3)c2)CC1
assay readout: pIC50
result: 5.00
--
compound: C[C@H](Nc1ncnc2nc[nH]c12)c1cc2cccc(Cl)c2c(=O)n1-c1ccccc1
assay readout: pIC50
result: 4.96

molecule CC(C)(C)c1nc(-c2cccc(NS(=O)(=O)c3c(F)cccc3F)c2F)c(-c2ccnc(N)n2)s1 , pIC50 observed: 5.94

molecule Cn1cnc2c(F)c(Nc3ccc(Br)cc3F)c(C(=O)NOCCO)cc21 , pIC50 observed: 6.92

molecule CO[C@]1(C(=O)N[C@@H](C)c2ccc(-n3cc(F)cn3)nc2)CC[C@H](c2nc(C)cc(Nc3cc(C)[nH]n3)n2)CC1 , pIC50 observed: 5.03

====

- target or test system: panel of 255 wild-type kinases (Homo sapiens, UniProt Q8IWQ3)
- protocol summary: Kinase panel profiling at 1 µmol/L (MSA or IMAP), percentage inhibition
- Type: biochemical
- applied conditions: BRSK2 kinase assay; 1 µmol/L single concentration; read-out: %-inhibition BRSK2
Measured inhibition at 1 µM of individual entries
Numeric only. Scale: %

The examples below pair each entry with its known result.
compound: CCn1c(=O)c(-c2cc(NC(=O)Nc3ccccc3)c(F)cc2Br)cc2cnc(NC)cc21
target or test system: panel of 255 wild-type kinases (Homo sapiens, UniProt Q8IWQ3)
assay readout: inhibition at 1 µM
result: 8
//
compound: COC(=O)N[C@@H](C)CNc1nccc(-c2cn(C(C)C)nc2-c2cc(Cl)cc(NS(C)(=O)=O)c2F)n1
target or test system: panel of 255 wild-type kinases (Homo sapiens, UniProt Q8IWQ3)
assay readout: inhibition at 1 µM
result: -8
//
compound: Cc1nc(NC(=O)N2CCC[C@H]2C(N)=O)sc1-c1ccnc(C(C)(C)C(F)(F)F)c1
target or test system: panel of 255 wild-type kinases (Homo sapiens, UniProt Q8IWQ3)
assay readout: inhibition at 1 µM
result: 14

Moving on to another compound below.
compound COc1cc2ncnc(Nc3ccc(F)c(Cl)c3)c2cc1NC(=O)/C=C/CN1CCCCC1 , inhibition at 1 µM observed: 6.47

====

- target or test system: panel of 255 wild-type kinases (Homo sapiens, UniProt P51617)
- Sequence (P51617 whole entry): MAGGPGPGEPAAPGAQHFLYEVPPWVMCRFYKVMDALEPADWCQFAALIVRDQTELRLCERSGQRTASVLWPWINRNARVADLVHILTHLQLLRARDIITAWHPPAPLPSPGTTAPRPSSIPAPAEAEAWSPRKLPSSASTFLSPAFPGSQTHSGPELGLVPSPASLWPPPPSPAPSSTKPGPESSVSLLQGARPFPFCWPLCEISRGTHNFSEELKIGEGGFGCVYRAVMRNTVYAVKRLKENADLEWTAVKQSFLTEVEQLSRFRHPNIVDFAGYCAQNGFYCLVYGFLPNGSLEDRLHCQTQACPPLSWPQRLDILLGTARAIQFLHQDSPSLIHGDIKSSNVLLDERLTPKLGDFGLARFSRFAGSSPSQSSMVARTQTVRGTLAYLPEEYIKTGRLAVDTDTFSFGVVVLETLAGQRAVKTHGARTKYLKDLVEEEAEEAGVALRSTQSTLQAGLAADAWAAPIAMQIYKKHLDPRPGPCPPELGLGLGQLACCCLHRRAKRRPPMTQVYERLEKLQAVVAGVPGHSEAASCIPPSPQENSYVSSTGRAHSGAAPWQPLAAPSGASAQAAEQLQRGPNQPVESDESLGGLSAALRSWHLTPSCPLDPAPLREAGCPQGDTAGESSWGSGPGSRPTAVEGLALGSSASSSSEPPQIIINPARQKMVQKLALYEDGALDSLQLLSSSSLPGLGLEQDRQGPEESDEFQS
- protocol summary: Kinase panel profiling at 1 µmol/L (MSA or IMAP), percentage inhibition
- Format: biochemical
- applied conditions: kinase IRAK1; 1 µmol/L single concentration; read-out: %-inhibition at 1 µmol/L, IRAK1
assay readout: inhibition at 1 µM (%)
Numeric only. Scale: %

The examples below pair each entry with its known result.
compound: Cn1cnc2c(F)c(Nc3ccc(Br)cc3F)c(C(=O)NOCCO)cc21 [binimetinib]
assay readout: inhibition at 1 µM
unit symbol: %
result: 2.19

compound: COc1cc2ncnc(Nc3ccc(F)c(Cl)c3)c2cc1NC(=O)/C=C/CN1CCCCC1 [dacomitinib]
assay readout: inhibition at 1 µM
unit symbol: %
result: 76

compound Cn1cnc2c(F)c(Nc3ccc(Br)cc3Cl)c(C(=O)NOCCO)cc21 [selumetinib] , inhibition at 1 µM observed: -2.71

compound COC(=O)N[C@@H](C)CNc1nccc(-c2cn(C(C)C)nc2-c2cc(Cl)cc(NS(C)(=O)=O)c2F)n1 [encorafenib] , inhibition at 1 µM observed: 21

====

- target or test system: panel of 255 wild-type kinases (Homo sapiens, UniProt Q04759)
- Sequence (Q04759 whole entry): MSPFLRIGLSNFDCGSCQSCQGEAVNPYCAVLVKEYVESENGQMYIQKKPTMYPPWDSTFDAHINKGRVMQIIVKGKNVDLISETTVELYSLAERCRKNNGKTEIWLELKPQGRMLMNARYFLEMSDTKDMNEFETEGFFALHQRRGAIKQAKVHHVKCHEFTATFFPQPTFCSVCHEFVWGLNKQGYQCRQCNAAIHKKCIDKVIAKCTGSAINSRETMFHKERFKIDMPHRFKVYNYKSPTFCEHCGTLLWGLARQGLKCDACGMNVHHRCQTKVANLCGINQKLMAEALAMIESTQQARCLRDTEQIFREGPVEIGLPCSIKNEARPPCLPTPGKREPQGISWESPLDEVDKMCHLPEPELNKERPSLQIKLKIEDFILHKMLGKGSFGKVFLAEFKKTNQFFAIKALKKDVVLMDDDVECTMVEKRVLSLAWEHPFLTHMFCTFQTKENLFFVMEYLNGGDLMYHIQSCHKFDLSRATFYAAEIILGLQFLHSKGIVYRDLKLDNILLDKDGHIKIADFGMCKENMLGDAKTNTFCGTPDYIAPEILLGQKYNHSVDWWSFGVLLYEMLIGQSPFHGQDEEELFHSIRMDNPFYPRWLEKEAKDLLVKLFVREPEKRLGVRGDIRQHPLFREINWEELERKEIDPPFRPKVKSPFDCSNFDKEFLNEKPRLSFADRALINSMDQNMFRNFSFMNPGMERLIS
- protocol summary: Kinase panel profiling at 1 µmol/L (MSA or IMAP), percentage inhibition
- Format: biochemical
- applied conditions: kinase PKCθ; 1 µmol/L single concentration; read-out: %-inhibition at 1 µmol/L, PKCθ
Measured inhibition at 1 µM of individual entries
Numeric only. Scale: %

The examples below pair each entry with its known result.
compound: CCn1c(=O)c(-c2cc(NC(=O)Nc3ccccc3)c(F)cc2Br)cc2cnc(NC)cc21
inhibition at 1 µM [%]: -3
//
compound: CCc1nc(C(N)=O)c(Nc2ccc(N3CCC(N4CCN(C)CC4)CC3)c(OC)c2)nc1NC1CCOCC1
inhibition at 1 µM [%]: 12

compound C[C@H]1Oc2cc(cnc2N)-c2c(nn(C)c2C#N)CN(C)C(=O)c2ccc(F)cc21 , inhibition at 1 µM observed: 3

compound COC(=O)N[C@@H](C)CNc1nccc(-c2cn(C(C)C)nc2-c2cc(Cl)cc(NS(C)(=O)=O)c2F)n1 , inhibition at 1 µM observed: 2

compound Cc1cc(Nc2ncnc3ccc(NC4=NC(C)(C)CO4)cc23)ccc1Oc1ccn2ncnc2c1 , inhibition at 1 µM observed: 0.763
